assay_procedure: in vivo
Set-up: species or system SD Rat
applied_conditions: SD, rat, iv, 1 mg/kg
endpoint: AUC(0-inf) (ng·h/mL)

smiles=CS(=O)(=O)O.C[C@H](NCc1ccc(-c2ccc(C(F)(F)F)cc2)cc1)C(N)=O endpoint_unit=ng·h/mL quantitative_readout=164

###

applied_conditions: human
endpoint: half-life

compound="CS(=O)(=O)O.C[C@H](NCc1ccc(-c2ccc(C(F)(F)F)cc2)cc1)C(N)=O [KDS2010]" result="~2160 min"

###

assay_procedure: Preclinical pharmacokinetics in mice
Assay type: in vivo, mouse
applied_conditions: in vivo; APP/PS1 mouse, 1 mg/kg single oral administration
endpoint: AUC(0-inf) (ng·h/mL)

smiles=CS(=O)(=O)O.C[C@H](NCc1ccc(-c2ccc(C(F)(F)F)cc2)cc1)C(N)=O endpoint=AUC(0-inf) quantitative_readout=1130
